Each recorded value in this set is attributed to patent US7118895B2.

Tested on: Crude diglycosidase
PROCEDURE TEXT: Examination of temperature in the conversion into isoflavone aglycons by diglycosidase using soybean materials
Format: biochemical, Penicillium multicolor IAM7153
EXPERIMENTAL CONDITIONS: 80 °C; heat treatment of enzyme: no; 3 h
ASSAY METRIC: Decomposition efficiency of glycitin family in soymilk

{"STRUCTURE AS SMILES": "COc1cc2c(=O)c(-c3ccc(O)cc3)coc2cc1O", "MEASURED": "44.9%"}
{"STRUCTURE AS SMILES": "COc1cc2c(=O)c(-c3ccc(O)cc3)coc2cc1O[C@@H]1O[C@H](CO)[C@@H](O)[C@H](O)[C@H]1O", "MEASURED": "22.5%"}
{"STRUCTURE AS SMILES": "COc1cc2c(=O)c(-c3ccc(O)cc3)coc2cc1O[C@@H]1O[C@H](COC(=O)CC(=O)O)[C@@H](O)[C@H](O)[C@H]1O", "MEASURED": "32.6%"}

====

Test system: Crude diglycosidase
PROCEDURE TEXT: Examination of substrate concentration in the conversion into isoflavone aglycons by diglycosidase using soybean materials;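 also: percent of the isoflavone family total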
Assay type: biochemical, Penicillium multicolor IAM7153
EXPERIMENTAL CONDITIONS: concentrated soybean protein, substrate concentration 30%, heat treatment of enzyme no, reaction time 6 h
ASSAY METRIC: Decomposition efficiency: ratio of each glycoside/aglycon within its isoflavone family (%)

{"STRUCTURE AS SMILES": "CC(=O)OC[C@H]1O[C@@H](Oc2ccc3c(=O)c(-c4ccc(O)cc4)coc3c2)[C@H](O)[C@@H](O)[C@@H]1O", "EXPERIMENTAL TARGET": "Crude diglycosidase", "UNIT TAG": "%", "MEASURED": 42.8}
{"STRUCTURE AS SMILES": "CC(=O)OC[C@H]1O[C@@H](Oc2cc(O)c3c(=O)c(-c4ccc(O)cc4)coc3c2)[C@H](O)[C@@H](O)[C@@H]1O", "EXPERIMENTAL TARGET": "Crude diglycosidase", "UNIT TAG": "%", "MEASURED": 55.9}

====

System: Crude diglycosidase
PROCEDURE TEXT: Examination of pH in the conversion into isoflavone aglycons by diglycosidase using soybean materials
Format: biochemical, Penicillium multicolor IAM7153
EXPERIMENTAL CONDITIONS: pH5, heat treatment of enzyme no, reaction time 3 h, 55° C.
ASSAY METRIC: Decomposition efficiency of glycitin family in roasted soy flour

{"STRUCTURE AS SMILES": "COc1cc2c(=O)c(-c3ccc(O)cc3)coc2cc1O", "MEASURED": 93.5}
{"STRUCTURE AS SMILES": "COc1cc2c(=O)c(-c3ccc(O)cc3)coc2cc1O[C@@H]1O[C@H](COC(C)=O)[C@@H](O)[C@H](O)[C@H]1O", "MEASURED": 6.5}

====

System: Crude diglycosidase
PROCEDURE TEXT: Examination of temperature in the conversion into isoflavone aglycons by diglycosidase using soybean materials
Type: biochemical, Penicillium multicolor IAM7153
EXPERIMENTAL CONDITIONS: 80 °C; heat treatment of enzyme: no; 0 h
Procedure: Into 400 μL of 20 mM acetate buffer of pH 4.0 was suspended 50 mg of each of various soybean materials (roasted soy flour (manufactured by Fuji Shokuryo K.K.), soymilk (manufactured by Gitoh Shokuhin K.K.), defatted soybean (manufactured by Fuji Seiyu K.K.), concentrated soybean protein (manufactured by Fuji Seiyu K.K.)), whereby a substrate solution was prepared. Crude diglycosidase was diluted with 20 mM acetate buffer of pH 4.0 to be the glycosidase activity of 1.88 AU/mL. […]
A collection of compounds and their measured Decomposition efficiency of glycitin family in soymilk
ASSAY METRIC: Decomposition efficiency of glycitin family in soymilk

{"COMPOUND": "COc1cc2c(=O)c(-c3ccc(O)cc3)coc2cc1O [glycitein]", "MEASURED": "8.2%"}
{"COMPOUND": "COc1cc2c(=O)c(-c3ccc(O)cc3)coc2cc1O[C@@H]1O[C@H](COC(=O)CC(=O)O)[C@@H](O)[C@H](O)[C@H]1O [malonylglycitin, 6″-O-malonylglycitin]", "MEASURED": "49.1%"}
{"COMPOUND": "COc1cc2c(=O)c(-c3ccc(O)cc3)coc2cc1O[C@@H]1O[C@H](CO)[C@@H](O)[C@H](O)[C@H]1O [glycitin]", "MEASURED": "42.6%"}

====

Entries and their measured Decomposition efficiency of daidzin family in soymilk follow.
System: Crude diglycosidase
PROCEDURE TEXT: Examination of temperature in the conversion into isoflavone aglycons by diglycosidase using soybean materials
Type: biochemical, Penicillium multicolor IAM7153
Set-up: concentration or dose not given beside the values
EXPERIMENTAL CONDITIONS: 65 °C; heat treatment of enzyme: yes; 6 h
ASSAY METRIC: Decomposition efficiency of daidzin family in soymilk

{"STRUCTURE AS SMILES": "O=C(O)CC(=O)OC[C@H]1O[C@@H](Oc2ccc3c(=O)c(-c4ccc(O)cc4)coc3c2)[C@H](O)[C@@H](O)[C@@H]1O", "MEASURED": "42.4%"}
{"STRUCTURE AS SMILES": "O=c1c(-c2ccc(O)cc2)coc2cc(O)ccc12", "MEASURED": "8.8%"}
{"STRUCTURE AS SMILES": "O=c1c(-c2ccc(O)cc2)coc2cc(O[C@@H]3O[C@H](CO)[C@@H](O)[C@H](O)[C@H]3O)ccc12", "MEASURED": "48.7%"}

====

Decomposition efficiency of genistin family in defatted soybean: recorded values
Tested on: Crude diglycosidase
PROCEDURE TEXT: Examination of temperature in the conversion into isoflavone aglycons by diglycosidase using soybean materials
Type: biochemical, Penicillium multicolor IAM7153
EXPERIMENTAL CONDITIONS: 45° C., heat treatment of enzyme no, reaction time 1 h
Method: Into 400 μL of 20 mM acetate buffer of pH 4.0 was suspended 50 mg of each of various soybean materials (roasted soy flour (manufactured by Fuji Shokuryo K.K.), soymilk (manufactured by Gitoh Shokuhin K.K.), defatted soybean (manufactured by Fuji Seiyu K.K.), concentrated soybean protein (manufactured by Fuji Seiyu K.K.)), whereby a substrate solution was prepared. Crude diglycosidase was diluted with 20 mM acetate buffer of pH 4.0 to be the glycosidase activity of 1.88 AU/mL. […]
ASSAY METRIC: Decomposition efficiency of genistin family in defatted soybean

{"STRUCTURE AS SMILES": "O=C(O)CC(=O)OC[C@H]1O[C@@H](Oc2cc(O)c3c(=O)c(-c4ccc(O)cc4)coc3c2)[C@H](O)[C@@H](O)[C@@H]1O", "EXPERIMENTAL TARGET": "Crude diglycosidase", "MEASURED": "49.0%"}
{"STRUCTURE AS SMILES": "O=c1c(-c2ccc(O)cc2)coc2cc(O[C@@H]3O[C@H](CO)[C@@H](O)[C@H](O)[C@H]3O)cc(O)c12", "EXPERIMENTAL TARGET": "Crude diglycosidase", "MEASURED": "0.9%"}
{"STRUCTURE AS SMILES": "O=c1c(-c2ccc(O)cc2)coc2cc(O)cc(O)c12", "EXPERIMENTAL TARGET": "Crude diglycosidase", "MEASURED": "49.2%"}
{"STRUCTURE AS SMILES": "CC(=O)OC[C@H]1O[C@@H](Oc2cc(O)c3c(=O)c(-c4ccc(O)cc4)coc3c2)[C@H](O)[C@@H](O)[C@@H]1O", "EXPERIMENTAL TARGET": "Crude diglycosidase", "MEASURED": "0.8%"}

====

Documented Decomposition efficiency of glycitin family in soymilk across a set of compounds
Tested on: Crude diglycosidase
PROCEDURE TEXT: Examination of temperature in the conversion into isoflavone aglycons by diglycosidase using soybean materials
Format: biochemical, Penicillium multicolor IAM7153
EXPERIMENTAL CONDITIONS: 30 °C; heat treatment of enzyme: yes; 6 h
ASSAY METRIC: Decomposition efficiency of glycitin family in soymilk (%)

{"COMPOUND": "COc1cc2c(=O)c(-c3ccc(O)cc3)coc2cc1O[C@@H]1O[C@H](COC(=O)CC(=O)O)[C@@H](O)[C@H](O)[C@H]1O [malonylglycitin, 6″-O-malonylglycitin]", "MEASURED": 47.7}
{"COMPOUND": "COc1cc2c(=O)c(-c3ccc(O)cc3)coc2cc1O[C@@H]1O[C@H](CO)[C@@H](O)[C@H](O)[C@H]1O [glycitin]", "MEASURED": 44.5}
{"COMPOUND": "COc1cc2c(=O)c(-c3ccc(O)cc3)coc2cc1O [glycitein]", "MEASURED": 7.9}

====

Tested on: Crude diglycosidase
PROCEDURE TEXT: Examination of pH in the conversion into isoflavone aglycons by diglycosidase using soybean materials
Format: biochemical, Penicillium multicolor IAM7153
EXPERIMENTAL CONDITIONS: pH6.6; heat treatment of enzyme: yes; reaction time 6 h
# reported Decomposition efficiency of glycitin family in defatted soybean; entries follow
ASSAY METRIC: Decomposition efficiency of glycitin family in defatted soybean (%)

{"COMPOUND": "COc1cc2c(=O)c(-c3ccc(O)cc3)coc2cc1O[C@@H]1O[C@H](COC(=O)CC(=O)O)[C@@H](O)[C@H](O)[C@H]1O [malonylglycitin, 6″-O-malonylglycitin]", "MEASURED": 50.3}
{"COMPOUND": "COc1cc2c(=O)c(-c3ccc(O)cc3)coc2cc1O [glycitein]", "MEASURED": 49.7}
